- Tested on: 883617-216-R-J1-PDC complex spheroid viability;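 also: exposure lasted seven days after three days of spheroid growth; 100% = DMSO vehicle control luminescence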
- MEASUREMENT PROTOCOL: Anticancer human tumor 883617-216-R-J1-PDC patient-derived bladder carcinoma cell line growth inhibition
- CONDITION LABEL: second compound 10 µM; first compound 0.00949 µM; active compounds read low
- Description: Multicellular complex tumor spheroid response to LSD1 Inhibitor Iadademstat in combination with a variety of drugs and investigational agents in selected tumor cell lines The current study was undertaken to assess response to LSD1 inhibitors in combination with standard-of-care drugs and investigational agents in solid tumor complex spheroid models as well as in the K-562 leukemia. […] Compounds. […] If the clinical Cmax for an agent had not been determined, the highest concentration tested was 10 microM. […]
MEASURED PROPERTY: viability, T/C (%)

>>> assay_result("Nc1ncn(C2CC(O)C(CO)S2)c(=O)n1 (configuration not stated) + NC1CCC(NC2CC2c2ccccc2)CC1")
91.3
>>> assay_result("Nc1ccn(C2OC(CO)C(O)C2(F)F)c(=O)n1 (configuration not stated) + NC1CC1c1ccc(-c2cccc(O)c2)cc1")
24.9
>>> assay_result("CCc1c2c(nc3ccc(O)cc13)-c1cc3c(c(=O)n1C2)COC(=O)[C@]3(O)CC + NC1CC1c1ccc(-c2cccc(O)c2)cc1")
17.4
>>> assay_result("COc1cc(C2c3cc4c(cc3C(OC3OC5COC(C)OC5C(O)C3O)C3COC(=O)C23)OCO4)cc(OC)c1O (configuration not stated) + NC1CC1c1ccc(-c2cccc(O)c2)cc1")
82.4
>>> assay_result("NS(=O)(=O)OCC1CC(n2ccc3c(NC4CCc5ccccc54)ncnc32)CC1O (configuration not stated) + NC1CCC(NC2CC2c2ccccc2)CC1")
113
>>> assay_result("COc1cc(C2c3cc4c(cc3C(OC3OC5COC(C)OC5C(O)C3O)C3COC(=O)C23)OCO4)cc(OC)c1O (configuration not stated) + NC1CCC(NC2CC2c2ccccc2)CC1")
122
>>> assay_result("Nc1ccccc1NC(=O)c1ccc(CNC(=O)OCc2cccnc2)cc1 + NC1CCC(NC2CC2c2ccccc2)CC1")
106

FYI, the data here is from PubChem BioAssay AID1918945.
